Molecular target: Escherichia coli DNA gyrase A/B tetramer (Escherichia coli, UniProt P0AES4+P0AES6)
Assay: DNA gyrase supercoiling activity fluorescence polarisation assay
Format: biochemical
// pIC50 lookup, one value per entry
pIC50 is defined as minus the log10 of a concentration measured in mol/L.

C[C@H]1CN2c3c(cc(C#Cc4c[nH]cn4)c(F)c3F)CC3(C(=O)NC(=O)NC3=O)[C@@H]2[C@@H](C)O1 (relative stereo) :: 6.15
C/C(=N\NC(=O)C1CC1)c1cc2c(c(F)c1F)N1C[C@@H](C)O[C@@H](C)[C@@H]1C1(C2)C(=O)NC(=O)NC1=O (relative stereo) :: 5.73
C/C(=N\Nc1ncccn1)c1cc2c(c(F)c1F)N1C[C@@H](C)O[C@@H](C)[C@@H]1C1(C2)C(=O)NC(=O)NC1=O (relative stereo) :: 5.79
C[C@@H]1CN2c3c(cc(C(=O)NC4CCOC4)c(F)c3F)CC3(C(=O)NC(=O)NC3=O)[C@H]2[C@H](C)O1 (relative stereo) :: 5.30
C[C@@H]1CN2c3ccc(NC(=O)N(C)C)cc3CC3(C(=O)NC(=O)NC3=O)[C@H]2[C@H](C)O1 (relative stereo) :: 4.66

-- ask Please report the measured pIC50 for "C[C@@H]1CN2c3c(cc(C#Cc4cnccn4)c(F)c3F)CC3(C(=O)NC(=O)NC3=O)[C@H]2[C@H](C)O1"
-- reply 6.40

-- ask Report measured pIC50; entry is C[C@@H]1CN2c3cc(F)c(C#Cc4nccs4)cc3CC3(C(=O)NC(=O)NC3=O)[C@H]2[C@H](C)O1 (relative stereo)
-- reply 5.97

-- ask Tell us which pIC50 value is on record for C[C@@H]1CN2c3c(cc(C#Cc4ccc(-c5ccn[nH]5)s4)c(F)c3F)CC3(C(=O)NC(=O)NC3=O)[C@H]2[C@H](C)O1 (relative stereo)
-- reply 5.74

-- ask Please supply the value of reported pIC50 for the item CCNC(=O)Nc1ccc2c(c1)CC1(C(=O)NC(=O)NC1=O)[C@H]1[C@H](C)O[C@H](C)CN21 (relative stereo)
-- reply 4.98

----------
Molecular target: Escherichia coli DNA gyrase A/B tetramer (Escherichia coli, UniProt P0AES4+P0AES6)
Experiment: DNA gyrase supercoiling activity fluorescence polarisation assay
Assay type: biochemical
QUANTITY MEASURED: pIC50
When answering, recall that pIC50 equals minus log10 of the concentration in mol/L, and write that number alone.

Some molecules with recorded pIC50:
C/C(=N\Nc1ccccn1)c1cc2c(c(F)c1F)N1C[C@@H](C)O[C@@H](C)[C@@H]1C1(C2)C(=O)NC(=O)NC1=O (relative stereo) :: 6.07
C[C@@H]1CN2c3ccc(NS(=O)(=O)N4CCOCC4)cc3CC3(C(=O)NC(=O)NC3=O)[C@H]2[C@H](C)O1 (relative stereo) :: 6.18
C[C@@H]1CN2c3c(F)cc(C#Cc4nncs4)cc3CC3(C(=O)NC(=O)NC3=O)[C@H]2[C@H](C)O1 (relative stereo) :: 6.15

Here's the next entry for you.
-- ask Quote pIC50 reported for C[C@@H]1CN2c3cc(F)c(C#Cc4cccs4)cc3CC3(C(=O)NC(=O)NC3=O)[C@H]2[C@H](C)O1 (relative stereo) please.
-- reply 5.95

----------
Below, each of the compounds is paired with its reported pIC50 value.
Molecular target: Escherichia coli DNA gyrase A/B tetramer (Escherichia coli, UniProt P0AES4+P0AES6)
Experiment: DNA gyrase supercoiling activity fluorescence polarisation assay
Type: biochemical
Hey, just a heads up that pIC50 is the negative log base 10 of the concentration in molar.

Please review the following examples before continuing.
C[C@H]1CN2c3c(cc(C#Cc4nccs4)c(F)c3F)CC3(C(=O)NC(=O)NC3=O)[C@@H]2[C@@H](C)O1 (relative stereo) :: 5.89
C[C@@H]1CN2c3c(F)cc(C#Cc4nccs4)cc3CC3(C(=O)NC(=O)NC3=O)[C@H]2[C@H](C)O1 (relative stereo) :: 6.12
C[C@@H]1CN2c3c(cc(C#Cc4ccc(-c5nnn[nH]5)s4)c(F)c3F)CC3(C(=O)NC(=O)NC3=O)[C@H]2[C@H](C)O1 (relative stereo) :: 5.95
C[C@@H]1CN2c3cc(F)c(C#Cc4cncs4)cc3CC3(C(=O)NC(=O)NC3=O)[C@H]2[C@H](C)O1 (relative stereo) :: 6.08

-- ask Fill in reported pIC50 for this entry: C[C@@H]1CN2c3c(cc(C(=O)NC4CCNC4)c(F)c3F)CC3(C(=O)NC(=O)NC3=O)[C@H]2[C@H](C)O1 (relative stereo)
-- reply 5.54

-- ask Identify measured pIC50 corresponding to C[C@@H]1CN2c3cc(F)c(C#Cc4ncccn4)cc3CC3(C(=O)NC(=O)NC3=O)[C@H]2[C@H](C)O1 (relative stereo)
-- reply 5.93

-- ask Provide pIC50 value for the following compound: COC(=O)N/N=C(\C)c1cc2c(c(F)c1F)N1C[C@@H](C)O[C@@H](C)[C@@H]1C1(C2)C(=O)NC(=O)NC1=O (racemic)
-- reply 6.35

-- ask Dear colleague, please send me the reported pIC50 for C[C@@H]1CN2c3ccc(NC(=O)N4CCNC4=O)cc3CC3(C(=O)NC(=O)NC3=O)[C@H]2[C@H](C)O1 (relative stereo) when you can.
-- reply 4.78

-- ask Check the records and state pIC50 for C[C@@H]1CN2c3c(cc(C(=O)NC4CCOC4=O)c(F)c3F)CC3(C(=O)NC(=O)NC3=O)[C@H]2[C@H](C)O1 (relative stereo)
-- reply 5.32
